- study_target: human polyclonal Fab (human)
- experiment_description: equilibrium adsorption isotherm on resin, Langmuir fit
Ends that are not written are not given here.
measurement_kind: Kd

binder: FRWNFHRNTFFP (also: C-terminus attached to Toyopearl AF-Amino-650M resin or ChemMatrix bead)
value_observed: 2.16 µM
--
binder: IIHRRAFWWFPN (also: C-terminus attached to Toyopearl AF-Amino-650M resin or ChemMatrix bead)
value_observed: 5.14 µM

FYI, the data here is from patent US20260062442A1.
